Tested on: DMS-114 complex spheroids with HUVEC/MSC, growth % test/control
Experiment: Anticancer human tumor DMS-114 cell line growth inhibition [AhR];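 note: spheroids exposed to agents for 7 days before readout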
Settings: second compound 10 µM; first compound 0.316 µM; hits give low values
# viability, T/C binned as low = under 30%, middle = from 30% up to 90%, high = 90% and over

Consider the worked cases shown below.
# molecule, class
records = [
    ("COc1cc(Nc2ncc3c(n2)-c2ccc(Cl)cc2C(c2c(F)cccc2OC)=NC3)ccc1C(=O)O + CC(CO)NC(=O)c1cc(-c2ccc(Cl)cc2)nn(-c2cnn(C)c2)c1=O", "middle"),
    ("COc1ccc([C@@H](O)c2cc(-c3ncnc4cc(N5CCOCC5)ccc34)c(F)cc2Cl)nn1 + CC(CO)NC(=O)c1cc(-c2ccc(Cl)cc2)nn(-c2cnn(C)c2)c1=O", "high"),
    ("CC1COCCN1c1cc(C2(S(C)(=N)=O)CC2)nc(-c2ccnc3[nH]ccc23)n1 (stereo not given) + CC(CO)NC(=O)c1cc(-c2ccc(Cl)cc2)nn(-c2cnn(C)c2)c1=O", "high"),
    ("COc1cccc2c1C(=O)c1c(O)c3c(c(O)c1C2=O)CC(O)(C(=O)CO)CC3OC1CC(N)C(O)C(C)O1 (stereo not given) + Cc1cncc(-c2nc(NCCc3c[nH]c4ccccc34)c3ncn(C(C)C)c3n2)c1", "low"),
    ("Nc1ncn(C2CC(O)C(CO)O2)c(=O)n1 (stereo not given) + Cc1ccccc1N=Nc1ccc(NC(=O)c2ccnn2C)c(C)c1", "high"),
]

Q: Please indicate the class for COc1cc(C2c3cc4c(cc3C(OC3OC5COC(C)OC5C(O)C3O)C3COC(=O)C23)OCO4)cc(OC)c1O (stereo not given) + Cc1cncc(-c2nc(NCCc3c[nH]c4ccccc34)c3ncn(C(C)C)c3n2)c1 based on its viability, T/C.
Result: low

Q: Query CC(C)c1c(-c2ccccc2)nc2c(C#N)c[nH]n2c1=O + Cc1cncc(-c2nc(NCCc3c[nH]c4ccccc34)c3ncn(C(C)C)c3n2)c1 next
Result: middle

Q: Consider next the molecule COc1cccc2c1C(=O)c1c(O)c3c(c(O)c1C2=O)CC(O)(C(=O)CO)CC3OC1CC(N)C(O)C(C)O1 (stereo not given) + CC(CO)NC(=O)c1cc(-c2ccc(Cl)cc2)nn(-c2cnn(C)c2)c1=O in the same way.
Result: low

Q: Please do the same for O=C(C=Cc1cccc(S(=O)(=O)Nc2ccccc2)c1)NO + Cc1ccccc1N=Nc1ccc(NC(=O)c2ccnn2C)c(C)c1 as well.
Result: middle

Q: How about CC1COCCN1c1cc(C2(S(C)(=N)=O)CC2)nc(-c2ccnc3[nH]ccc23)n1 (stereo not given) + Cc1cncc(-c2nc(NCCc3c[nH]c4ccccc34)c3ncn(C(C)C)c3n2)c1 ?
Result: middle

Q: Another: COc1cccc2c1C(=O)c1c(O)c3c(c(O)c1C2=O)CC(O)(C(=O)CO)CC3OC1CC(N)C(O)C(C)O1 (stereo not given) + Cc1ccccc1N=Nc1ccc(NC(=O)c2ccnn2C)c(C)c1
Result: low

Q: Same thing, different molecule: Nc1ccccc1NC(=O)c1ccc(CNC(=O)OCc2cccnc2)cc1 + Cc1cncc(-c2nc(NCCc3c[nH]c4ccccc34)c3ncn(C(C)C)c3n2)c1
Result: low

###

Tested on: DMS-114 complex spheroids with HUVEC/MSC, growth % test/control
Test: Anticancer human tumor DMS-114 cell line growth inhibition [AhR]; active = viability on the fitted dose curve at most 10% of control; inactive = the rest;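 note: spheroids exposed to agents for 7 days before readout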
Details: second compound 1 µM; first compound 0.03 µM
Hi there, use one of these labels in your reply, thanks! True for active, False for inactive

Below, 3 compounds whose answers are already recorded.
# compound, class
records = [
    ("CCc1c2c(nc3ccc(O)cc13)-c1cc3c(c(=O)n1C2)COC(=O)[C@]3(O)CC + Cc1ccccc1N=Nc1ccc(NC(=O)c2ccnn2C)c(C)c1", "False"),
    ("O=C(C=Cn1cnc(-c2cc(C(F)(F)F)cc(C(F)(F)F)c2)n1)NNc1cnccn1 + CC(CO)NC(=O)c1cc(-c2ccc(Cl)cc2)nn(-c2cnn(C)c2)c1=O", "False"),
    ("O=C(C=Cn1cnc(-c2cc(C(F)(F)F)cc(C(F)(F)F)c2)n1)NNc1cnccn1 + Cc1cncc(-c2nc(NCCc3c[nH]c4ccccc34)c3ncn(C(C)C)c3n2)c1", "False"),
]

Q: For CC(C)CC(NC(=O)C(Cc1ccccc1)NC(=O)c1cnccn1)B(O)O (stereo unspecified) + CC(CO)NC(=O)c1cc(-c2ccc(Cl)cc2)nn(-c2cnn(C)c2)c1=O , which call appears in the assay record?
Result: True

Q: Cool, now Nc1ncn(C2CC(O)C(CO)S2)c(=O)n1 (stereo unspecified) + Cc1cncc(-c2nc(NCCc3c[nH]c4ccccc34)c3ncn(C(C)C)c3n2)c1
Result: False

Q: Follow-up entry: CCc1c2c(nc3ccc(O)cc13)-c1cc3c(c(=O)n1C2)COC(=O)[C@]3(O)CC + Cc1cncc(-c2nc(NCCc3c[nH]c4ccccc34)c3ncn(C(C)C)c3n2)c1
Result: False
